Entry source: patent US6727232B2

System: E. coli GC 4559
ASSAY NOTES: Broth dilution MIC
Type: cell-based
RUN CONDITIONS: Escherichia coli, GC4559; E. coli GC 4559; Mueller-Hinton broth, 18 hours at 35° C.; read-out: Antimicrobial Activity (MIC)
METRIC NAME: MIC

These recorded examples may help you get a feel for the data.
[
  {
    "COMPOUND": "CO[C@H]1C(O[C@H](C(NCCCNC(=O)C(NC(=O)C(NC(=O)NC(C(=O)O)C(C)C)C2CCNC(=N)N2)C(O)C(C)C)C(=O)O)[C@H]2O[C@@H](n3ccc(=O)[nH]c3=O)[C@H](O)[C@@H]2O)O[C@H](CNCc2ccccc2)[C@@H]1O (stereo partly shown) [Example 20A]",
    "MIC": "> 32 µg/mL"
  },
  {
    "COMPOUND": "CO[C@H]1C(O[C@H](C(C(=O)O)N(CCCNC(=O)C(NC(=O)C(NC(=O)NC(C(=O)O)C(C)C)C2CCNC(=N)N2)C(O)C(C)C)Cc2ccccc2)[C@H]2O[C@@H](n3ccc(=O)[nH]c3=O)[C@H](O)[C@@H]2O)O[C@H](CN)[C@@H]1O (stereo partly shown)",
    "MIC": "> 32 µg/mL"
  },
  {
    "COMPOUND": "COc1ccc(N2C(=O)C([C@@H](OC3O[C@H](CN)[C@H](O)[C@H]3OC)[C@H]3O[C@@H](n4ccc(=O)[nH]c4=O)[C@H](O)[C@@H]3O)N(CCCNC(=O)C(NC(=O)C(NC(=O)NC(C(=O)O)C(C)C)C3CCNC(=N)N3)C(O)C(C)C)C2=O)cc1 (stereo partly shown)",
    "MIC": "> 32 µg/mL"
  }
]

Please turn your attention to the following entry.
Quick note, MIC for CCCCCCCCCCCCNC(=O)NC[C@H]1OC(O[C@H](C2C(=O)N(CCCCCCCCCCCC)C(=O)N2CCCNC(=O)C(NC(=O)C(NC(=O)NC(C(=O)O)C(C)C)C2CCNC(=N)N2)C(O)C(C)C)[C@H]2O[C@@H](n3ccc(=O)[nH]c3=O)[C@H](O)[C@@H]2O)[C@H](OC)[C@H]1O (stereo partly shown) landed at > 32 µg/mL

###

System: CNS GC 4538
ASSAY NOTES: Broth dilution MIC
Type: cell-based
RUN CONDITIONS: CNS GC 4538; Mueller-Hinton broth, 18 hours at 35° C.; read-out: Antimicrobial Activity (MIC)
METRIC NAME: MIC

[
  {
    "MOLECULE": "CCCCCCNC(=O)NC[C@H]1OC(O[C@H](C2C(=O)N(CCCCCC)C(=O)N2CCCNC(=O)C(NC(=O)C(NC(=O)NC(C(=O)O)C(C)C)C2CCNC(=N)N2)C(O)C(C)C)[C@H]2O[C@@H](n3ccc(=O)[nH]c3=O)[C@H](O)[C@@H]2O)[C@H](OC)[C@H]1O (stereo partly shown)",
    "MIC": "32 µg/mL"
  }
]

Note to self: MIC of CCCCCCCCCCCCN1C(=O)C([C@@H](OC2O[C@H](CN)[C@H](O)[C@H]2OC)[C@H]2O[C@@H](n3ccc(=O)[nH]c3=O)[C@H](O)[C@@H]2O)N(CCCNC(=O)C(NC(=O)C(NC(=O)NC(C(=O)O)C(C)C)C2CCNC(=N)N2)C(O)C(C)C)C1=O (stereo partly shown) with CNS GC 4538 was > 32 µg/mL

Note to self: MIC of CCCCCNC[C@H]1OC(O[C@H](C(NCCCNC(=O)C(NC(=O)C(NC(=O)NC(C(=O)O)C(C)C)C2CCNC(=N)N2)C(O)C(C)C)C(=O)O)[C@H]2O[C@@H](n3ccc(=O)[nH]c3=O)[C@H](O)[C@@H]2O)[C@H](OC)[C@H]1O (stereo partly shown) with CNS GC 4538 was > 32 µg/mL

Note to self: MIC of COc1ccc(N2C(=O)C([C@@H](OC3O[C@H](CN)[C@H](O)[C@H]3OC)[C@H]3O[C@@H](n4ccc(=O)[nH]c4=O)[C@H](O)[C@@H]3O)N(CCCNC(=O)C(NC(=O)C(NC(=O)NC(C(=O)O)C(C)C)C3CCNC(=N)N3)C(O)C(C)C)C2=O)cc1 (stereo partly shown) with CNS GC 4538 was > 32 µg/mL
